Let's look at some molecules and their measured ALP.
- Organism: Rattus norvegicus
- EXPERIMENTAL_DETAILS: Open TG-GATES - Regimen: Single
- Type: toxicity, organism-based, Sprague-Dawley
- Parameters: regimen Single, gender Male, age 6 weeks
- CONDITION_SET: in vivo, po, 0 mg/kg, 24 h, tissue Plasma, route gavage, dose level Control
Provide only the numeric value, understood in IU/L.

CC[C@@H](CO)NCCN[C@@H](CC)CO [ETHAMBUTOL]	1625.6
CC(=O)N1CCN(c2ccc(OCC3COC(Cn4ccnc4)(c4ccc(Cl)cc4Cl)O3)cc2)CC1 (configuration not stated) [KETOCONAZOLE]	1980.8
CC(C)Cc1ccc(C(C)C(=O)O)cc1 (configuration not stated) [IBUPROFEN]	1790.4
CCN(CC)N=O [N-NITROSODIETHYLAMINE]	1035
CC(CCc1ccccc1)NCC(O)c1ccc(O)c(C(N)=O)c1 (configuration not stated) [LABETALOL]	1641.6

(Q) For the molecule CC(=O)Nc1ccc2c(c1)Cc1ccccc1-2 [2-ACETYLAMINOFLUORENE] , what ALP is on record?
(A) 1055.8

(Q) For the molecule O=C(O)COc1nn(Cc2ccccc2)c2ccccc12 [BENDAZAC] , what ALP is on record?
(A) 978
